Origin of values: patent US20120083522A1

system: human Factor XI mRNA; assay: Antisense inhibition in HepG2 cells by microwalk gapmers, 75 nM, lipofectin (Example 3); format: cell-based; details: HepG2 cells, 75 nM, oligonucleotides targeted to nucleobases 1275 to 1318 of SEQ ID NO: 1
In the oligonucleotide strings, read from the 5' end, every base follows the letter of its sugar. An asterisk marks phosphorothioate; unmarked linkages are phosphodiester. Other units and linkages are bracketed, terminal groups are in braces. A string of capitals states the bases alone. e = 2'-O-(2-methoxyethyl) (MOE); [5mC] = 5-methylcytosine; d = 2'-deoxy (DNA)
Assign 1 whenever % inhibition of human Factor XI mRNA levels does not fall below 90%; assign 0 whenever it does.

For orientation, consider the following solved cases.
SUBSTANCE	GROUP
412224 (antisense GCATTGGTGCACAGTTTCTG; sugars from the 5' end e5 d10 e5, backbone and methylation of C not given here) [compound 412224]	1
416997 (antisense eA*e[5mC]*dA*dG*dT*dT*dT*d[5mC]*dT*dG*dG*d[5mC]*dA*dG*dG*e[5mC]*e[5mC]*eT*e[5mC]*eG) [compound 416997]	0
416864 (antisense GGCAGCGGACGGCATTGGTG; 5-10-5 gapmer, wing sugar chemistry not given here, further chemistry not given here) [compound 416864]	1
416922 (antisense eG*e[5mC]*eA*d[5mC]*dA*dG*dT*dT*dT*d[5mC]*dT*dG*dG*d[5mC]*dA*dG*dG*e[5mC]*e[5mC]*eT) [compound 416922]	1
412225 (antisense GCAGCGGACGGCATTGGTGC; sugars from the 5' end e5 d10 e5, backbone and methylation of C not given here) [compound 412225]	0
417008 (antisense eG*eG*d[5mC]*dA*dT*dT*dG*dG*dT*dG*d[5mC]*dA*d[5mC]*dA*dG*eT*eT*eT*e[5mC]*eT) [compound 417008]	0
417007 (antisense eG*e[5mC]*dA*dT*dT*dG*dG*dT*dG*d[5mC]*dA*d[5mC]*dA*dG*dT*eT*eT*e[5mC]*eT*eG) [compound 417007]	0

Input line: Hi, just wondering whether 417009 (antisense e[5mC]*eG*dG*d[5mC]*dA*dT*dT*dG*dG*dT*dG*d[5mC]*dA*d[5mC]*dA*eG*eT*eT*eT*e[5mC]) [compound 417009] shows % inhibition of human Factor XI mRNA levels of 90% or higher.
Output line: 0

----------
# maps each entry to its Percent inhibition of human Factor XI mRNA levels
tested on: human Factor XI mRNA; assay: Antisense inhibition in HepG2 cells by microwalk gapmers, 8,000 nM, electroporation (Example 14); type: cell-based; conditions: HepG2 cells, 8,000 nM
In the oligonucleotide strings, read from the 5' end, every base follows the letter of its sugar. An asterisk marks phosphorothioate; unmarked linkages are phosphodiester. Other units and linkages are bracketed, terminal groups are in braces. A string of capitals states the bases alone. e = 2'-O-(2-methoxyethyl) (MOE); [5mC] = 5-methylcytosine; d = 2'-deoxy (DNA)
Write down the numeric answer in % and omit the unit.

Recorded results for 2 substances are shown here.
SUBSTANCE	RESULT
445533 (antisense eA*e[5mC]*eG*eG*e[5mC]*dA*dT*dT*dG*dG*dT*dG*d[5mC]*eA*e[5mC]*eA*eG*eT) [compound 445533]	87
416859 (antisense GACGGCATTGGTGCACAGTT; 5-10-5 gapmer, wing sugar chemistry not given here, further chemistry not given here) [compound 416859]	85

Let us move to another entry and its Percent inhibition of human Factor XI mRNA levels.
Input line: Consider the substance shown here: 445508 (antisense eG*eG*eA*e[5mC]*eG*eG*d[5mC]*dA*dT*dT*dG*dG*dT*dG*e[5mC]*eA*e[5mC]*eA*eG*eT) [compound 445508] What is its recorded Percent inhibition of human Factor XI mRNA levels?
Output line: 81

----------
tested on: human Factor XI mRNA; experiment: Dose-dependent inhibition in HepG2 cells, lipofectin (Example 5); assay type: cell-based; conditions: 4.69 nM, 16 hours
ENDPOINT: percent inhibition of human Factor XI mRNA, relative to untreated control cells (%)
Write down the numeric answer in % and omit the unit.

Recorded results for 4 substances are shown here.
SUBSTANCE	VALUE UNIT	RESULT
416838 (antisense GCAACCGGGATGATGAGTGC; 5-10-5 gapmer, wing sugar chemistry not given here, further chemistry not given here) [compound 416838]	%	37
416858 (antisense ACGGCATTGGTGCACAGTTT; 5-10-5 gapmer, wing sugar chemistry not given here, further chemistry not given here) [compound 416858]	%	35
417003 (antisense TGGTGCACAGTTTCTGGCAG; 2-13-5 gapmer, wing sugar chemistry not given here, further chemistry not given here) [compound 417003]	%	29
416825 (antisense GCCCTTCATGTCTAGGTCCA; 5-10-5 gapmer, wing sugar chemistry not given here, further chemistry not given here) [compound 416825]	%	22

Let us move to another entry and its percent inhibition of human Factor XI mRNA, relative to untreated control cells.
Input line: Consider the substance shown here: 416826 (antisense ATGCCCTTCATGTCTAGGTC; 5-10-5 gapmer, wing sugar chemistry not given here, further chemistry not given here) [compound 416826] What is its recorded percent inhibition of human Factor XI mRNA, relative to untreated control cells?
Output line: 22

----------
assay: Cynomolgus monkeys: body and organ weights (Example 29); type: in vivo; settings: escalating doses 5, 10, 25 mg/kg s.c., day 64
In the oligonucleotide strings, read from the 5' end, every base follows the letter of its sugar. An asterisk marks phosphorothioate; unmarked linkages are phosphodiester. Other units and linkages are bracketed, terminal groups are in braces. A string of capitals states the bases alone. e = 2'-O-(2-methoxyethyl) (MOE); [5mC] = 5-methylcytosine; d = 2'-deoxy (DNA)
ENDPOINT: Body weight (g)
Write down the numeric answer in g and omit the unit.

Recorded results for 4 substances are shown here.
SUBSTANCE	ENDPOINT	VALUE UNIT	RESULT
ISIS 417002: gapmer of Table 8 (antisense eG*eG*dT*dG*d[5mC]*dA*d[5mC]*dA*dG*dT*dT*dT*d[5mC]*dT*dG*eG*e[5mC]*eA*eG*eG)	Body weight	g	2598
ISIS 416838: gapmer of Table 6 (antisense eG*e[5mC]*eA*eA*e[5mC]*d[5mC]*dG*dG*dG*dA*dT*dG*dA*dT*dG*eA*eG*eT*eG*e[5mC])	Body weight	g	2746
ISIS 416850: gapmer of Table 8 (antisense eT*eG*e[5mC]*eA*e[5mC]*dA*dG*dT*dT*dT*d[5mC]*dT*dG*dG*d[5mC]*eA*eG*eG*e[5mC]*e[5mC])	Body weight	g	2642
ISIS 416864: gapmer of Table 8 (antisense eG*eG*e[5mC]*eA*eG*d[5mC]*dG*dG*dA*d[5mC]*dG*dG*d[5mC]*dA*dT*eT*eG*eG*eT*eG)	Body weight	g	3384

Let us move to another entry and its Body weight.
Input line: Consider the substance shown here: ISIS 416858: gapmer of Table 8 (antisense eA*e[5mC]*eG*eG*e[5mC]*dA*dT*dT*dG*dG*dT*dG*d[5mC]*dA*d[5mC]*eA*eG*eT*eT*eT) What is its recorded Body weight?
Output line: 2618

----------
assay: Cynomolgus monkeys: body and organ weights (Example 29); type: in vivo; settings: after euthanasia
In the oligonucleotide strings, read from the 5' end, every base follows the letter of its sugar. An asterisk marks phosphorothioate; unmarked linkages are phosphodiester. Other units and linkages are bracketed, terminal groups are in braces. A string of capitals states the bases alone. e = 2'-O-(2-methoxyethyl) (MOE); [5mC] = 5-methylcytosine; d = 2'-deoxy (DNA)
ENDPOINT: Kidney weight (g)
Write down the numeric answer in g and omit the unit.

Recorded results for 3 substances are shown here.
SUBSTANCE	RESULT
ISIS 416864: gapmer of Table 8 (antisense eG*eG*e[5mC]*eA*eG*d[5mC]*dG*dG*dA*d[5mC]*dG*dG*d[5mC]*dA*dT*eT*eG*eG*eT*eG)	14
ISIS 416858: gapmer of Table 8 (antisense eA*e[5mC]*eG*eG*e[5mC]*dA*dT*dT*dG*dG*dT*dG*d[5mC]*dA*d[5mC]*eA*eG*eT*eT*eT)	13
ISIS 417002: gapmer of Table 8 (antisense eG*eG*dT*dG*d[5mC]*dA*d[5mC]*dA*dG*dT*dT*dT*d[5mC]*dT*dG*eG*e[5mC]*eA*eG*eG)	15

Let us move to another entry and its Kidney weight.
Input line: Consider the substance shown here: ISIS 416838: gapmer of Table 6 (antisense eG*e[5mC]*eA*eA*e[5mC]*d[5mC]*dG*dG*dG*dA*dT*dG*dA*dT*dG*eA*eG*eT*eG*e[5mC]) What is its recorded Kidney weight?
Output line: 12

----------
assay: Tolerability in Sprague-Dawley rats: kidney function (Example 19); format: in vivo; conditions: Sprague Dawley rats, after 50 mg/kg s.c. twice per week for 6 weeks
# maps each entry to its urine protein/creatinine ratio, After
Field format: numeric only.

Recorded results for 2 substances are shown here.
SUBSTANCE	urine protein/creatinine ratio, After
416892 (antisense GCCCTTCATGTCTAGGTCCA; 3-14-3 chimeric gapmer, wing sugar chemistry not given here, further chemistry not given here) [compound 416892]	21.3
417003 (antisense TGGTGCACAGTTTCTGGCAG; 2-13-5 gapmer, wing sugar chemistry not given here, further chemistry not given here) [compound 417003]	4.8

Let us move to another entry and its urine protein/creatinine ratio, After.
Input line: Consider the substance shown here: 416999 (antisense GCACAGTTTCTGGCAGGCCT; 2-13-5 gapmer, wing sugar chemistry not given here, further chemistry not given here) [compound 416999] What is its recorded urine protein/creatinine ratio, After?
Output line: 9.1
